Hey, just so you know, these numbers are from patent US20230203177A1.

test.system: T1, soluble human CD40 extracellular domain (human, UniProt P25942 21-193)
T1 construct: Produced in house; also called hCD40; soluble hCD40 extracellular domain
T1 sequence (P25942 21-193 limits assumed): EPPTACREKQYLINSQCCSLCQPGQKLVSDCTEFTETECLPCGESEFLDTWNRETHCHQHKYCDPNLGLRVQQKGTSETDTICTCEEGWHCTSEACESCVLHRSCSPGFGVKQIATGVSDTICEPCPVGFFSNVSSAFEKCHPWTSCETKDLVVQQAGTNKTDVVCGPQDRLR
assay.procedure: SPR, purified Ab on protein A, 6 concentrations of hCD40 ECD
Reported values of kon for individual entries
Numbers only; they are read as M⁻¹ s⁻¹.

Reference set (5 entries):
{"columns": ["binder", "value.unit", "kon"],
 "data": [
  ["M54 (HC-K12V,K19S,K23A / LC-K45Q,R54Q,R61Q) (antibody, human IgG1, kappa, V domains shown, IgG1-P238K; also called HC6/LC4) VH: QVQLVQSGAEVVKPGSSVSVSCAASGYAFTSYWMHWVRQAPGQGLEWMGQINPTTGRSQYNEKFKTRVTITADKSTSTAYMELSSLRSEDTAVYYCARWGLQPFAYWGQGTLVTVSS VL: DIQMTQSPSFLSASVGDRVTITCKASQDVSTAVAWYQQKPGKAPQLLIYSASYQYTGVPSQFSGSGSGTDFTLTISSLQPEDFATYYCQQHYSTPWTFGGGTKVEIKR", "M⁻¹ s⁻¹", 330000],
  ["M47 (HC-R67Q / LC-K45E) (antibody, human IgG1, kappa, V domains shown, IgG1-P238K; also called HC15/LC3) VH: QVQLVQSGAEVKKPGSSVKVSCKASGYAFTSYWMHWVRQAPGQGLEWMGQINPTTGRSQYNEKFKTQVTITADKSTSTAYMELSSLRSEDTAVYYCARWGLQPFAYWGQGTLVTVSS VL: DIQMTQSPSFLSASVGDRVTITCKASQDVSTAVAWYQQKPGKAPELLIYSASYRYTGVPSRFSGSGSGTDFTLTISSLQPEDFATYYCQQHYSTPWTFGGGTKVEIKR", "M⁻¹ s⁻¹", 330000],
  ["M62 (HC-K74T / LC-K45Q,R54Q,R61Q) (antibody, human IgG1, kappa, V domains shown, IgG1-P238K; also called HC14/LC4) VH: QVQLVQSGAEVKKPGSSVKVSCKASGYAFTSYWMHWVRQAPGQGLEWMGQINPTTGRSQYNEKFKTRVTITADTSTSTAYMELSSLRSEDTAVYYCARWGLQPFAYWGQGTLVTVSS VL: DIQMTQSPSFLSASVGDRVTITCKASQDVSTAVAWYQQKPGKAPQLLIYSASYQYTGVPSQFSGSGSGTDFTLTISSLQPEDFATYYCQQHYSTPWTFGGGTKVEIKR", "M⁻¹ s⁻¹", 300000],
  ["M38 (HC-K12V,K19S,K23A / LC-K45E) (antibody, human IgG1, kappa, V domains shown, IgG1-P238K; also called HC6/LC3) VH: QVQLVQSGAEVVKPGSSVSVSCAASGYAFTSYWMHWVRQAPGQGLEWMGQINPTTGRSQYNEKFKTRVTITADKSTSTAYMELSSLRSEDTAVYYCARWGLQPFAYWGQGTLVTVSS VL: DIQMTQSPSFLSASVGDRVTITCKASQDVSTAVAWYQQKPGKAPELLIYSASYRYTGVPSRFSGSGSGTDFTLTISSLQPEDFATYYCQQHYSTPWTFGGGTKVEIKR", "M⁻¹ s⁻¹", 280000],
  ["M63 (HC-R67Q / LC-K45Q,R54Q,R61Q) (antibody, human IgG1, kappa, V domains shown, IgG1-P238K; also called HC15/LC4) VH: QVQLVQSGAEVKKPGSSVKVSCKASGYAFTSYWMHWVRQAPGQGLEWMGQINPTTGRSQYNEKFKTQVTITADKSTSTAYMELSSLRSEDTAVYYCARWGLQPFAYWGQGTLVTVSS VL: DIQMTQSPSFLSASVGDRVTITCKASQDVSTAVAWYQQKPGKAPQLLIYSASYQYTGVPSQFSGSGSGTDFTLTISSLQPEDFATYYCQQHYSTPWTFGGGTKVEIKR", "M⁻¹ s⁻¹", 400000]
]}

Exercise: What does the record list as kon for M80 (HC-K63Q / LC-R61Q) (antibody, human IgG1, kappa, V domains shown, IgG1-P238K; also called HC16/LC5) VH: QVQLVQSGAEVKKPGSSVKVSCKASGYAFTSYWMHWVRQAPGQGLEWMGQINPTTGRSQYNEQFKTRVTITADKSTSTAYMELSSLRSEDTAVYYCARWGLQPFAYWGQGTLVTVSS VL: DIQMTQSPSFLSASVGDRVTITCKASQDVSTAVAWYQQKPGKAPKLLIYSASYRYTGVPSQFSGSGSGTDFTLTISSLQPEDFATYYCQQHYSTPWTFGGGTKVEIKR ?
Key: 240000
